// reported TGI per item
# System: OVCAR-8 ovarian
# experiment: NCI tumour cell line growth inhibition, 48 h

Use these answered entries as a reference point.
compound	TGI
O=C1CCCCCCCCCCC(=O)C2CCOCCOCCOCCC1Cc1cccc(n1)C2	> 100 µM
COc1ccc2c(c1)C1Oc3ccccc3CC1(O)CO2 (configuration not stated)	> 100 µM
COc1cc2c(c(OC)c1OC)-c1ccc(SC)c(=O)cc1[C@@H](NC(=O)c1ccc(OC(C)=O)cc1)CC2	12.1 µM
O=C(CCCC1Cc2ccccc2C1=O)c1ccccc1 (configuration not stated)	> 100 µM
O=C1c2cc([N+](=O)[O-])cnc2S(=O)(=O)N1c1ccc(Br)cc1	> 100 µM
Cn1nc(-c2ccccc2)c(N=[N+]=[N-])cc1=O	> 100 µM
Cc1cccc(C)c1NC(=O)CCCC(=O)CC(=O)/C=C/c1ccccc1	> 100 µM
O=C(O)CS(=O)c1ccc2c3c(cccc13)C(=O)c1ccccc1-2 (configuration not stated)	> 100 µM

### Prompt Notebook: pull reported TGI for OVCAR-8 ovarian, entry Cc1ccccc1C(=O)C#Cc1cn(C2CC(O)C(CO)O2)c(=O)[nH]c1=O (configuration not stated)
### Response > 100 µM

### Prompt Record lookup: for OVCAR-8 ovarian, what TGI belongs to "COc1ccc2c(c1)nc(N)c1c3cc(OC)c(OC)cc3cn21" ?
### Response 13.6 µM

### Prompt Provide value of TGI for this record tested with OVCAR-8 ovarian: "C=CC[C@H]1C[C@@]2(C)OC[C@H](C(C)C)N2C1=O"
### Response > 100 µM

### Prompt Item CC1(CCc2ccccc2)CC1(Br)Br (configuration not stated) with OVCAR-8 ovarian - TGI?
### Response 50.8 µM
